molecular target: Protein cereblon/F-box-like/WD repeat-containing protein TBL1X (Homo sapiens) (UniProt Q96SW2+O60907); experiment: PROTAC activity at CRBN/TBL1X in human Ri-1 cells assessed as TBL1X level relative to control at 0.008 uM incubated for 6 hrs by Western blotting analysis (reference value: 1); assay type: cell-based
Sequence (O60907 whole entry, looked up): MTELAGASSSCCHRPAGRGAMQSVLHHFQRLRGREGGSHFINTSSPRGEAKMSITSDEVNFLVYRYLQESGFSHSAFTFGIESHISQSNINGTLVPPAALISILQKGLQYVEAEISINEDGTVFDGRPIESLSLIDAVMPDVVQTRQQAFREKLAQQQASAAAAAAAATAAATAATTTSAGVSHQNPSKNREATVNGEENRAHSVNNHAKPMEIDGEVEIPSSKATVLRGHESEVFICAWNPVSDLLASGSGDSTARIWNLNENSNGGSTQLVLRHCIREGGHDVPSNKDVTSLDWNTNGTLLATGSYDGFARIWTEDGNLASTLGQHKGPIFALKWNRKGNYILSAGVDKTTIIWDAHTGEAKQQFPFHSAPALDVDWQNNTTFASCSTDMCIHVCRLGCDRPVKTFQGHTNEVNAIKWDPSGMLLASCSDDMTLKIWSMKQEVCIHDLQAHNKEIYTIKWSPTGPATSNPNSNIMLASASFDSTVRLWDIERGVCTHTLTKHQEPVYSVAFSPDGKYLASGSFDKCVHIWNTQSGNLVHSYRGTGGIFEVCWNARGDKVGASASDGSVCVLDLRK
Sequence (Q96SW2 whole entry, looked up): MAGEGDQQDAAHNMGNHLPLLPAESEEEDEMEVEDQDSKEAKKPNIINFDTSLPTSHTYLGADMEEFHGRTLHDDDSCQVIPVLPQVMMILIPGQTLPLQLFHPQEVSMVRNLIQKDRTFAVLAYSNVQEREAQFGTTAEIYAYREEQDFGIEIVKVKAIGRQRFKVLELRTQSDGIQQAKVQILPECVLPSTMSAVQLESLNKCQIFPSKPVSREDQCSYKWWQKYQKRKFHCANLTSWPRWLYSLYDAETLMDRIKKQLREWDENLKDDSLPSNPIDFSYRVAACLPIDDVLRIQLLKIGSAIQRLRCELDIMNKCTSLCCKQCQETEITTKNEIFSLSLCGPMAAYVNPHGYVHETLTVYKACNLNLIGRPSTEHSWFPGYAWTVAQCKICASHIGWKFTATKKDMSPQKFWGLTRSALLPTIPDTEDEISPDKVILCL
measure.name: fold change (FC)

# molecule, recorded.number
measured = [
    ("CC1CC(C)CN(S(=O)(=O)c2ccc3c(c2)/C(=N\\O)c2cc(S(=O)(=O)N4CCN(C(=O)CCOCCOCCNc5cccc6c5C(=O)N(C5CCC(=O)NC5=O)C6=O)CC4)ccc2/C3=N\\O)C1 (centres undefined)", 1.07),
    ("CC1CC(C)CN(S(=O)(=O)c2ccc3c(c2)/C(=N/O)c2cc(S(=O)(=O)N4CCN(C(=O)CCCCNc5cccc6c5C(=O)N(C5CCC(=O)NC5=O)C6=O)CC4)ccc2/C3=N\\O)C1 (centres undefined)", 0.9),
    ("CC1CC(C)CN(S(=O)(=O)c2ccc3c(c2)C(=NO)c2cc(S(=O)(=O)N4CC(C)CC(C)C4)ccc2C3=NOCCCNC(=O)CCOCCNc2cccc3c2C(=O)N(C2CCC(=O)NC2=O)C3=O)C1 (centres undefined)", 0.4),
    ("CC1CC(C)CN(S(=O)(=O)c2ccc3c(c2)/C(=N\\O)c2cc(S(=O)(=O)N4CCN(C(=O)CCOCCOCCOCCNc5cccc6c5C(=O)N(C5CCC(=O)NC5=O)C6=O)CC4)ccc2/C3=N\\O)C1 (centres undefined)", 0.9),
    ("CC1CC(C)CN(S(=O)(=O)c2ccc3c(c2)/C(=N/O)c2cc(S(=O)(=O)N4CCN(C(=O)CCCCCCCCCCNc5cccc6c5C(=O)N(C5CCC(=O)NC5=O)C6=O)CC4)ccc2/C3=N\\O)C1 (centres undefined)", 0.98),
    ("CC1CC(C)CN(S(=O)(=O)c2ccc3c(c2)C(=NO)c2cc(S(=O)(=O)N4CC(C)CC(C)C4)ccc2C3=NOCCCNC(=O)CCCCCCCCCCNc2cccc3c2C(=O)N(C2CCC(=O)NC2=O)C3=O)C1 (centres undefined)", 0.64),
    ("CC1CC(C)CN(S(=O)(=O)c2ccc3c(c2)C(=NO)c2cc(S(=O)(=O)N4CC(C)CC(C)C4)ccc2C3=NOCCCNC(=O)CCCCCCNc2cccc3c2C(=O)N(C2CCC(=O)NC2=O)C3=O)C1 (centres undefined)", 0.8),
    ("CC1CC(C)CN(S(=O)(=O)c2ccc3c(c2)/C(=N/O)c2cc(S(=O)(=O)N4CCN(C(=O)CCCCCCNc5cccc6c5C(=O)N(C5CCC(=O)NC5=O)C6=O)CC4)ccc2/C3=N\\O)C1 (centres undefined)", 0.91),
    ("CC1CC(C)CN(S(=O)(=O)c2ccc3c(c2)/C(=N/O)c2cc(S(=O)(=O)N4CCN(C(=O)CCNc5cccc6c5C(=O)N(C5CCC(=O)NC5=O)C6=O)CC4)ccc2/C3=N\\O)C1 (centres undefined)", 1),
    ("CC1CC(C)CN(S(=O)(=O)c2ccc3c(c2)/C(=N/O)c2cc(S(=O)(=O)N4CCN(C(=O)CCOCCNc5cccc6c5C(=O)N(C5CCC(=O)NC5=O)C6=O)CC4)ccc2/C3=N\\O)C1 (centres undefined)", 0.91),
    ("CC1CC(C)CN(S(=O)(=O)c2ccc3c(c2)C(=NO)c2cc(S(=O)(=O)N4CC(C)CC(C)C4)ccc2C3=NOCCCNC(=O)CCCCNc2cccc3c2C(=O)N(C2CCC(=O)NC2=O)C3=O)C1 (centres undefined)", 0.4),
    ("CC1CC(C)CN(S(=O)(=O)c2ccc3c(c2)C(=NO)c2cc(S(=O)(=O)N4CC(C)CC(C)C4)ccc2C3=NOCCCNC(=O)CCOCCOCCNc2cccc3c2C(=O)N(C2CCC(=O)NC2=O)C3=O)C1 (centres undefined)", 0.37),
    ("CC1CC(C)CN(S(=O)(=O)c2ccc3c(c2)C(=NO)c2cc(S(=O)(=O)N4CC(C)CC(C)C4)ccc2C3=NOCCCNC(=O)CCNc2cccc3c2C(=O)N(C2CCC(=O)NC2=O)C3=O)C1 (centres undefined)", 0.97),
    ("CC1CC(C)CN(S(=O)(=O)c2ccc3c(c2)C(=NO)c2cc(S(=O)(=O)N4CC(C)CC(C)C4)ccc2C3=NOCCCNC(=O)CCOCCOCCOCCNc2cccc3c2C(=O)N(C2CCC(=O)NC2=O)C3=O)C1 (centres undefined)", 0.6),
]

----------
target: Protein cereblon/F-box-like/WD repeat-containing protein TBL1X (Homo sapiens) (UniProt Q96SW2+O60907); experiment: PROTAC activity at CRBN/TBL1X in human Ri-1 cells assessed as […] TBL1X level at 1 uM incubated for 6 hrs by Western blotting analysis (reference value: 1); format: cell-based
Classification by fold change (FC) follows these ranges: lower level (below 0.6), middle level (0.6 to below 0.9), upper level (0.9 or more)

# compound, assigned.label
records = [
    ("CC1CC(C)CN(S(=O)(=O)c2ccc3c(c2)/C(=N/O)c2cc(S(=O)(=O)N4CCN(C(=O)CCNc5cccc6c5C(=O)N(C5CCC(=O)NC5=O)C6=O)CC4)ccc2/C3=N\\O)C1 (centres undefined)", "upper level"),
    ("CC1CC(C)CN(S(=O)(=O)c2ccc3c(c2)/C(=N\\O)c2cc(S(=O)(=O)N4CCN(C(=O)CCOCCOCCNc5cccc6c5C(=O)N(C5CCC(=O)NC5=O)C6=O)CC4)ccc2/C3=N\\O)C1 (centres undefined)", "upper level"),
    ("CC1CC(C)CN(S(=O)(=O)c2ccc3c(c2)C(=NO)c2cc(S(=O)(=O)N4CC(C)CC(C)C4)ccc2C3=NOCCCNC(=O)CCNc2cccc3c2C(=O)N(C2CCC(=O)NC2=O)C3=O)C1 (centres undefined)", "lower level"),
    ("CC1CC(C)CN(S(=O)(=O)c2ccc3c(c2)C(=NO)c2cc(S(=O)(=O)N4CC(C)CC(C)C4)ccc2C3=NOCCCNC(=O)CCOCCOCCNc2cccc3c2C(=O)N(C2CCC(=O)NC2=O)C3=O)C1 (centres undefined)", "middle level"),
    ("CC1CC(C)CN(S(=O)(=O)c2ccc3c(c2)/C(=N/O)c2cc(S(=O)(=O)N4CCN(C(=O)CCCCCCNc5cccc6c5C(=O)N(C5CCC(=O)NC5=O)C6=O)CC4)ccc2/C3=N\\O)C1 (centres undefined)", "upper level"),
    ("CC1CC(C)CN(S(=O)(=O)c2ccc3c(c2)/C(=N/O)c2cc(S(=O)(=O)N4CCN(C(=O)CCOCCNc5cccc6c5C(=O)N(C5CCC(=O)NC5=O)C6=O)CC4)ccc2/C3=N\\O)C1 (centres undefined)", "upper level"),
    ("CC1CC(C)CN(S(=O)(=O)c2ccc3c(c2)/C(=N\\O)c2cc(S(=O)(=O)N4CCN(C(=O)CCOCCOCCOCCNc5cccc6c5C(=O)N(C5CCC(=O)NC5=O)C6=O)CC4)ccc2/C3=N\\O)C1 (centres undefined)", "middle level"),
    ("CC1CC(C)CN(S(=O)(=O)c2ccc3c(c2)C(=NO)c2cc(S(=O)(=O)N4CC(C)CC(C)C4)ccc2C3=NOCCCNC(=O)CCCCCCCCCCNc2cccc3c2C(=O)N(C2CCC(=O)NC2=O)C3=O)C1 (centres undefined)", "lower level"),
    ("CC1CC(C)CN(S(=O)(=O)c2ccc3c(c2)C(=NO)c2cc(S(=O)(=O)N4CC(C)CC(C)C4)ccc2C3=NOCCCNC(=O)CCCCCCNc2cccc3c2C(=O)N(C2CCC(=O)NC2=O)C3=O)C1 (centres undefined)", "middle level"),
    ("CC1CC(C)CN(S(=O)(=O)c2ccc3c(c2)C(=NO)c2cc(S(=O)(=O)N4CC(C)CC(C)C4)ccc2C3=NOCCCNC(=O)CCOCCNc2cccc3c2C(=O)N(C2CCC(=O)NC2=O)C3=O)C1 (centres undefined)", "lower level"),
]

----------
IC50: recorded values
system: Pfeiffer; test: Cytotoxicity against human Pfeiffer cells assessed as reduction in cell viability incubated for 72 hrs by MTS assay; format: functional, cell-based

# compound, relation.sign, IC50 / nM
data = [
    ("CC1CC(C)CN(S(=O)(=O)c2ccc3c(c2)C(=NO)c2cc(S(=O)(=O)N4CC(C)CC(C)C4)ccc2C3=NOCCCNC(=O)CCCCNc2cccc3c2C(=O)N(C2CCC(=O)NC2=O)C3=O)C1 (stereo not given)", "=", 398),
    ("CC1CC(C)CN(S(=O)(=O)c2ccc3c(c2)/C(=N/O)c2cc(S(=O)(=O)N4CCN(C(=O)CCNc5cccc6c5C(=O)N(C5CCC(=O)NC5=O)C6=O)CC4)ccc2/C3=N\\O)C1 (stereo not given)", "=", 564),
    ("CC1CC(C)CN(S(=O)(=O)c2ccc3c(c2)/C(=N\\O)c2cc(S(=O)(=O)N4CCN(C(=O)CCOCCOCCOCCNc5cccc6c5C(=O)N(C5CCC(=O)NC5=O)C6=O)CC4)ccc2/C3=N\\O)C1 (stereo not given)", ">", 20000),
    ("CC1CC(C)CN(S(=O)(=O)c2ccc3c(c2)C(=NO)c2cc(S(=O)(=O)N4CC(C)CC(C)C4)ccc2C3=NOCCCNC(=O)CCOCCNc2cccc3c2C(=O)N(C2CCC(=O)NC2=O)C3=O)C1 (stereo not given)", "=", 554),
    ("CC1CC(C)CN(S(=O)(=O)c2ccc3c(c2)C(=NO)c2cc(S(=O)(=O)N4CC(C)CC(C)C4)ccc2C3=NOCCCNC(=O)CCCCCCNc2cccc3c2C(=O)N(C2CCC(=O)NC2=O)C3=O)C1 (stereo not given)", "=", 355),
]
